For each record, write down the corresponding nuclei count.
Assay: inhibitors of mutant huntingtin aggregation, primary screen, imaging, exon1htt(103Q)mCFP cells, high-content imaging (AID 483);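 note: compound exposure lasted 3 days before fixation; percent of the per-plate median nuclei count of sample wells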
Conditions: exon1htt(103Q)mCFP cell line, aggregate imaging, at 2 µM; measured here: cell count, toxicity
Value and unit, in that order.

Reference set (5 entries):
>  <Molecule>
Cc1cc(C)n(-c2nnc(C)n2/N=C/c2ccco2)n1

>  <nuclei count>
106%

$$$$
>  <Molecule>
CCOC(=O)C1=C[C@]2(CC)CCCN3CCc4c(n1c1ccccc41)[C@@H]32

>  <nuclei count>
106%

$$$$
>  <Molecule>
O=C(NC1CCS(=O)(=O)C1)c1c(NC(=O)C2COc3ccccc3O2)sc2c1CCCC2 (configuration not stated)

>  <nuclei count>
97.6%

$$$$
>  <Molecule>
N#Cc1c(N2CCOCC2)nc(N2CCCCC2)c2c1CCN(C1CCCCC1)C2

>  <nuclei count>
102%

$$$$
>  <Molecule>
O=C(O)CCc1cc(I)c(Oc2ccc(O)c(I)c2)c(I)c1

>  <nuclei count>
107%

$$$$

For each of the items listed, what is its nuclei count?
1. CN(C)CCCN1c2ccccc2Sc2ccc(Cl)cc21
2. Cn1c(=O)c2c(ncn2CCO)n(C)c1=O
3. CC(=O)C1=C(O)C(=O)N(c2ccc(C(=O)O)cc2)C1c1ccccc1 (configuration not stated)

OUT:
1. 101%
2. 102%
3. 101%

Return reported nuclei count values for all items listed beneath this line.
1. COC(=O)CN(c1nc(C)c(Cl)c(OC)n1)S(=O)(=O)c1ccc(C)cc1
2. N#CC1=C(N)N(c2ccccc2)C(c2ccccc2)C1(C#N)C#N (configuration not stated)

OUT:
1. 98.1%
2. 97.6%

Okay, here is my list. What is nuclei count for each of these?
1. COCCCC/C(=N\OCCN)c1ccc(C(F)(F)F)cc1
2. CCC(c1c(C)n(C)n(-c2ccccc2)c1=O)c1c(C)n(C)n(-c2ccccc2)c1=O
3. CSC1=C(C#N)C(C)CC(=O)N1 (configuration not stated)
4. C[N+]12CCC(CC1)C(OC(=O)C(O)(c1ccccc1)c1ccccc1)C2 (configuration not stated)

OUT:
["100%", "89.2%", "112%", "106%"]

Could you tell me nuclei count for each of these molecules? They are listed below.
1. CC(C)(C)NCC(O)COc1cccc2c1C[C@H](O)[C@H](O)C2 (some centres not stated)
2. CCNCc1cc2cc(C)ccc2[nH]c1=O
3. O=C(CCCN1CC=C(n2c(=O)[nH]c3ccccc32)CC1)c1ccc(F)cc1
4. CCC(NC(C)C)C(O)c1ccc(O)c2[nH]c(=O)ccc12 (configuration not stated)
5. C[C@@H]1C[C@H]2[C@@H]3C[C@H](F)C4=CC(=O)C=C[C@]4(C)[C@@]3(F)[C@@H](O)C[C@]2(C)[C@@]1(O)C(=O)COC(=O)C(C)(C)C
6. CCNC(=O)N(C)c1nncnc1C(=O)NC
7. Nc1ccc(S(=O)(=O)NC(=O)c2ccccc2)cc1
8. CN1CCN(CCCN2c3ccccc3Sc3ccc(Cl)cc32)CC1

OUT:
1: 101%; 2: 118%; 3: 105%; 4: 109%; 5: 51.7%; 6: 105%; 7: 94.6%; 8: 98.7%

====

Assay: inhibitors of Sendai virus-induced IRF3 signaling, primary screen, TLR/RLR signaling modifier project, cell-based, Sendai virus stimulus, luciferase, 10K MLSCN set (AID 602276);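 note: firefly luciferase from ISG56 promoter only with Renilla not read in this screen; 0% = Sendai virus plus DMSO and 100% = medium plus DMSO without virus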
Settings: HEK293 RL24 IRF3 luciferase reporter, at 10 µM, stronger effect = higher value
Cut-off 10% on inhibition, inclusive. At or above means label 1; below means label 0.

>  <Smiles>
OC[C@H]1O[C@@H](n2cnc3c(NC4CCCC4)ncnc32)[C@H](O)[C@@H]1O

>  <Label class>
label 0

$$$$
>  <Smiles>
COc1c2occc2c(OC)c2c(=O)cc(C)oc12

>  <Label class>
label 1

$$$$
>  <Smiles>
COc1ccc(Cn2c(CCCO)nc3ccccc32)cc1OC

>  <Label class>
label 1

$$$$
>  <Smiles>
C[C@]12CC[C@@H]3c4ccc(O)cc4CC[C@H]3[C@@H]1CCC2=O

>  <Label class>
label 0

$$$$

Shifting focus to the compound that follows.
IN: Is inhibition at least 10%? Consider N[C@@H](C(=O)N[C@@H]1C(=O)N2C(C(=O)O)=C(Cl)CS[C@H]12)c1ccccc1
OUT: label 1

====

Assay: inhibitors of E-selectin induction by TNFa, primary screen, imaging, HUVEC, immunofluorescence, MLSMR starter and 10KST1 sets (AID 487);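 note: signal is fraction of cell area covered by stained E-selectin grains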
Settings: HUVEC TNFalpha-induced E-selectin immunofluorescence imaging, at 2 µM; stronger effect = higher value
Would you mind classing the entries by inhibition? Ranges: bottom end (below -90%), midrange (-90% to below -30%), top end (-30% or more)

The examples below pair each entry with its known result.
>  <Compound>
COC(=O)CN(c1nc(C)c(Cl)c(OC)n1)S(=O)(=O)c1ccc(C)cc1

>  <Label class>
midrange

$$$$
>  <Compound>
CN(C)/C=C1\N=C(c2ccc(Cl)cc2Cl)OC1=O

>  <Label class>
midrange

$$$$
>  <Compound>
O=c1c(F)cn(C2CCCO2)c(=O)n1Cc1ccccc1Cl (stereo unspecified)

>  <Label class>
top end

$$$$
>  <Compound>
O=C(NCc1cccnc1)/C(=N\O)c1ccccc1

>  <Label class>
midrange

$$$$
>  <Compound>
Cc1ccc(NC(=O)CSC2=C(C#N)C(c3ccco3)C3=C(CCCC3=O)N2)cc1 (stereo unspecified)

>  <Label class>
bottom end

$$$$

IN: Category of CN1CCN(c2nc(C(N)=O)cc(-c3ccccc3)n2)CC1 , please.
OUT: top end

IN: The entry to classify is COc1cccc(OC)c1OCC(C)CNCC1CCCO1 (stereo unspecified) ; which class holds it?
OUT: bottom end

IN: Given CC(=O)N=c1sc(S(N)(=O)=O)nn1C , name the class its inhibition places it in.
OUT: bottom end

IN: Field: class (inhibition) — entry: Cc1cc(N2C(=O)C(=O)/C(=C(/O)c3ccc(F)cc3)C2c2ccc(F)cc2)no1 (stereo unspecified)
OUT: bottom end

IN: Dear colleague, I would appreciate it if you could identify the bin for CC(C)C(C(=O)Nc1ncn[nH]1)N1C(=O)c2ccccc2C1=O (stereo unspecified) and reply at your convenience.
OUT: top end

====

Assay: inhibitors of Chlamydomonas gravitaxis, primary screen, whole organism, Chlamydomonas reinhardtii, WT vs cilia-less mutant, absorbance, 96-well (AID 463189);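 note: 0% = wild type cc124 cells in DMSO and 100% = ciliumless bld1 mutant cells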
Settings: OD600 absorbance, 2 days, at 10 µM, stronger effect = higher value
Classification field: enter condition met for inhibition values not below 10%, condition not met for values below it.

IN: Quick check, inhibition >= 10%? CCOC(=O)c1ccc(N2CC(O)=C(c3nc4ccccc4c(=O)[nH]3)C2=N)cc1
OUT: condition not met

IN: Is inhibition at least 10%? Consider COc1ccccc1N(O)C1CC(=O)N(c2ccc(F)cc2)C1=O (stereo unspecified)
OUT: condition not met

====

Assay: inhibitors of TNFa-induced NFkB p65 translocation, primary screen, imaging, HUVEC, MLSMR starter and 10KST1 sets (AID 438);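 note: compound added about 3h40 before a 20 min TNFalpha stimulation; signal is the nuclear over cytoplasmic p65 intensity ratio per well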
Conditions: HUVEC TNFa-induced p65 nuclear translocation; at 2 µM, stronger effect = higher value, 0% TNFa-plus-vehicle, 100% no-TNFa wells
Recorded metric: inhibition (%)
Give bare numbers, in %.

Guide cases for inhibition, answers given:
>  <Compound>
Cc1ccc2c(=O)c(CN(C)C3CCN(C)CC3)c(C)[nH]c2c1C

>  <Recorded metric>
inhibition

>  <Experimental value>
-21.3

$$$$
>  <Compound>
Cc1ccc(S(=O)(=O)c2cc3c(=O)n4ccccc4nc3n(C)c2=N)cc1

>  <Recorded metric>
inhibition

>  <Experimental value>
-16.4

$$$$
>  <Compound>
C=CCc1c(C)nc(SCCC)[nH]c1=O

>  <Recorded metric>
inhibition

>  <Experimental value>
-10.1

$$$$
>  <Compound>
COc1ccc(CCNc2nc3c(c(=O)n(C)c(=O)n3C)n2C)cc1OC

>  <Recorded metric>
inhibition

>  <Experimental value>
-9.9

$$$$
>  <Compound>
CCN(CC)CCCN1C(=O)C(=O)/C(=C(/O)c2ccc(C)cc2)C1c1ccccn1 (stereo unspecified)

>  <Recorded metric>
inhibition

>  <Experimental value>
-2.6

$$$$

Please give inhibition for each item listed below.
1. O=C(O)c1cc2n(n1)C(C(F)(F)F)CC(c1ccccc1)N2 (stereo unspecified)
2. CCCC(=O)N1CCN(c2nc(CC(C)C)c3c(c2C#N)CCC3)CC1
3. COc1cccc(C2=CC(c3ccccc3)n3nnnc3N2)c1 (stereo unspecified)
4. CCOC(=O)c1c(CNCCN(CC)CC)n(C)c2cc(Br)c(OC)cc12
5. CCOc1ccc(C2C(C#N)=C(N)SC(N)=C2C#N)cc1OC
6. COC(=O)COn1c(SCC(=O)OC)nc2ccccc2c1=O

OUT:
1: -9.8; 2: -8.3; 3: 22.3; 4: 3.8; 5: -21.3; 6: -3.5
